// reported log10 of MIC per item
- Test system: Serratia marcescens
- ASSAY_SUMMARY: in vitro anti-bacterial activity, two-fold agar plate dilution method
- Assay type: cell-based
- MEASUREMENT_PARAMETERS: agar dilution, 37° C., 20 hours, read-out: MIC
Response schema: value (number) is log10 of MIC in units of µg/mL.

C=CCn1c[n+](CC2=C(C(=O)[O-])N3C(=O)C(NC(=O)/C(=N\OC)c4csc(N)n4)C3SC2)c2ccccc21 (centres unmarked): 1.10
C=CCO/N=C(\C(=O)NC1C(=O)N2C(C(=O)[O-])=C(C[n+]3cn(CC=C)c4ccccc43)CSC12)c1csc(N)n1 (centres unmarked): 1.40
C=CCn1cc[n+](CC2=C(C(=O)[O-])N3C(=O)C(NC(=O)/C(=N\OC)c4csc(N)n4)C3SC2)c1 (centres unmarked): -0.11
CC(C)(O/N=C(\C(=O)NC1C(=O)N2C(C(=O)[O-])=C(C[n+]3ccn(C4CCCCC4)c3)CSC12)c1csc(N)n1)C(=O)O (centres unmarked): 0.19
C#CCn1cc[n+](CC2=C(C(=O)[O-])N3C(=O)C(NC(=O)/C(=N\OCC=C)c4csc(N)n4)C3SC2)c1 (centres unmarked): 0.50
CC(C)=CCn1c[n+](CC2=C(C(=O)[O-])N3C(=O)C(NC(=O)/C(=N\OC(C)(C)C(=O)O)c4csc(N)n4)C3SC2)c2ccccc21 (centres unmarked): 1.10
CCCCCCn1cc[n+](CC2=C(C(=O)[O-])N3C(=O)C(NC(=O)/C(=N\OC(C)(C)C(=O)O)c4csc(N)n4)C3SC2)c1 (centres unmarked): -0.11
C=CCn1cc[n+](CC2=C(C(=O)[O-])N3C(=O)C(NC(=O)/C(=N\OC(C)(C)C(=O)O)c4csc(N)n4)C3SC2)c1 (centres unmarked): -0.11
CC(C)(O/N=C(\C(=O)NC1C(=O)N2C(C(=O)[O-])=C(C[n+]3cn(Cc4ccccc4)c4ccccc43)CSC12)c1csc(N)n1)C(=O)O (centres unmarked): 0.80
C=CCO/N=C(\C(=O)NC1C(=O)N2C(C(=O)[O-])=C(C[n+]3ccn(-c4ccc(O)cc4)c3)CSC12)c1csc(N)n1 (centres unmarked): 0.49

Read the next record carefully.
I have this compound here, C=CCO/N=C(\C(=O)NC1C(=O)N2C(C(=O)[O-])=C(C[n+]3ccn(C)c3)CSC12)c1csc(N)n1 (centres unmarked) , and I need its recorded log10 of MIC. 0.19
